meta.source: ChEMBL document CHEMBL4689842

Test system: Fibroblast
Test: Multiplex assay against human fibroblast
Format: toxicity, cell-based
Settings: 48 h, 10 µM, compound concentration 10 uM, replicate 2
Quick list: Population Hoechst High Intensity Objects (%) per entry.
The response must be a number in % with no trailing unit.

Before answering, review these 3 worked examples.
O=C1N/C(=N/c2ccccc2F)S/C1=C\c1ccc(C(=O)O)cc1 :: 15
Cc1cn(-c2cc(NC(=O)c3ccc(C)c(Nc4nccc(-c5cccnc5)n4)c3)cc(C(F)(F)F)c2)cn1 :: 25
C=C1/C(=C\C=C2/CCC[C@]3(C)[C@@H]([C@H](C)/C=C/[C@H](C)C(C)C)CC[C@@H]23)C[C@@H](O)C[C@@H]1O :: 14

Attention now shifts to the item below.
**Query** For CCOC(=O)c1c(C)[nH]c2ccc3c(c12)CN1CCc2cc(OC)ccc2C1O3 (centres undefined) , what is its reported Population Hoechst High Intensity Objects (%)?
**Result** 25
